Tested on: RXRa homodimer (NR concentration 180 nM)
experiment: PBM binding z-score (relative to random genomic background probes); higher = stronger binding; sequences stand for … in GC…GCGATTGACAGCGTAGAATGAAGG
PBM binding z-score of 3 or higher: met. Under 3: not met.

Req: Reported PBM binding z-score reaches at least 3 for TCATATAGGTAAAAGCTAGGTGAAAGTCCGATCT ?
Resp: not met

Req: # check: PBM binding z-score of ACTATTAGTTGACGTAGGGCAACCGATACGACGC is greater than or equal to 3
Resp: not met

Req: Reported PBM binding z-score reaches at least 3 for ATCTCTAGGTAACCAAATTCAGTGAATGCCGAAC ?
Resp: not met

Req: Please tell me: is the sequence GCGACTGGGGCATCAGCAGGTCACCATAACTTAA at or over 3 in terms of PBM binding z-score?
Resp: not met

Req: Reported PBM binding z-score reaches at least 3 for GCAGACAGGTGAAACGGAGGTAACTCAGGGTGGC ?
Resp: not met

Req: # bool: PBM binding z-score of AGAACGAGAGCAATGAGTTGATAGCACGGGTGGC >= 3
Resp: not met

Req: Quick check, PBM binding z-score >= 3? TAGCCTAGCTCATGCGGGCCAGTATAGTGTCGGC
Resp: not met

Req: Form field: PBM binding z-score at least 3? Entry: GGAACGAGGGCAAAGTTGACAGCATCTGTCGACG
Resp: not met

Req: Is PBM binding z-score for ATCTCTAGGTAAAGATAGCTCAGTGAATGCAAAT at or above 3?
Resp: not met

Req: Has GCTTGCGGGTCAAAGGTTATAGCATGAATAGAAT a recorded PBM binding z-score greater than or equal to 3?
Resp: met

Req: Threshold query (PBM binding z-score >= 3) on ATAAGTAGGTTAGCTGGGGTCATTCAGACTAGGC
Resp: met

Req: Decide: PBM binding z-score of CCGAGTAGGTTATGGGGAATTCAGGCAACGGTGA >= 3?
Resp: not met

Req: Is reported PBM binding z-score greater than or equal to 3 here: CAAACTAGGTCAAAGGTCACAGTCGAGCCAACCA
Resp: met

Req: Is reported PBM binding z-score greater than or equal to 3 here: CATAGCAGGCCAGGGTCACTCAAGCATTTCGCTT
Resp: met

Req: Assess whether reported PBM binding z-score for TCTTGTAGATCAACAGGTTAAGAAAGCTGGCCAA sits at 3 or higher.
Resp: not met

Req: Dear colleague, could you confirm whether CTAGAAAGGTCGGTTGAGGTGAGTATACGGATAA has PBM binding z-score at or above 3?
Resp: not met

Req: Is PBM binding z-score at least 3? Consider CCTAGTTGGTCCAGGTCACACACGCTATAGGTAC
Resp: not met

Req: Please indicate if the recorded PBM binding z-score for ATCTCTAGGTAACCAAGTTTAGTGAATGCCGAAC meets or exceeds 3.
Resp: not met

Req: Check if PBM binding z-score >= 3 (inclusive). Item: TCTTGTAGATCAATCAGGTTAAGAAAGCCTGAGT
Resp: not met

Req: Evaluate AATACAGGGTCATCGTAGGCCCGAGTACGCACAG : PBM binding z-score at minimum 3?
Resp: met

Req: Determine whether measured PBM binding z-score meets or exceeds 3 for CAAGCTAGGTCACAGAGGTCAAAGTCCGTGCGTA
Resp: met

Req: Determine whether measured PBM binding z-score meets or exceeds 3 for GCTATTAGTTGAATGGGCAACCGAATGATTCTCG
Resp: not met

Req: Entry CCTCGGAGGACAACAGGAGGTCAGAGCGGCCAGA : is its PBM binding z-score no less than 3?
Resp: not met

====

Test system: PPARa:RXRa (NR concentration 270 nM, RXRa partner concentration 90 nM)
experiment: PBM binding z-score (relative to random genomic background probes); higher = stronger binding; sequences stand for … in GC…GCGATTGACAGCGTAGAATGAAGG
Each entry gets 0 (no) if its PBM binding z-score stays under 4, and 1 (yes) if its PBM binding z-score is 4 or above.

Req: Exam item: decide whether the reported PBM binding z-score for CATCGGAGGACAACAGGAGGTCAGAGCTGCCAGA is at least 4.
Resp: 0 (no)

Req: Does the reported PBM binding z-score for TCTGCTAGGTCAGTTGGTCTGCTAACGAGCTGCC fall at or above the 4 mark?
Resp: 0 (no)

Req: Please check the record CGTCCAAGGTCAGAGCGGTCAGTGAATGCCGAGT and state if its PBM binding z-score is at or above 4.
Resp: 0 (no)

Req: Exam item: decide whether the reported PBM binding z-score for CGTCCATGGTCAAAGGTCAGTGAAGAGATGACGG is at least 4.
Resp: 1 (yes)

Req: Is the recorded value of PBM binding z-score equal to or greater than 4 for this sequence? AGTTACGGGTCAACGAGGTTATAGCACGCGTATA
Resp: 1 (yes)

Req: Given TCTAGTTGGTCACTGAGGTCACACACGACGGGTA , state whether its PBM binding z-score is at least 4.
Resp: 1 (yes)

Req: Check this sequence for PBM binding z-score at or above 4: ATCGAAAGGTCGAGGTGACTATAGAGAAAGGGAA
Resp: 1 (yes)

Req: Please check the record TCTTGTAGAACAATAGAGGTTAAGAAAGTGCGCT and state if its PBM binding z-score is at or above 4.
Resp: 0 (no)

Req: Exam item: decide whether the reported PBM binding z-score for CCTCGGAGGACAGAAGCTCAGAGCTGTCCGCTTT is at least 4.
Resp: 0 (no)

Req: Has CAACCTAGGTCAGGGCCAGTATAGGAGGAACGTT a recorded PBM binding z-score greater than or equal to 4?
Resp: 0 (no)

====

Tested on: RXRa homodimer (NR concentration 180 nM)
experiment: PBM binding z-score (relative to random genomic background probes); higher = stronger binding; sequences stand for … in GC…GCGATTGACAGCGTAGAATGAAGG
Binary classification by PBM binding z-score, with 2 as an inclusive lower bound for fulfilled; all other cases are not fulfilled.

Req: // inclusive: PBM binding z-score at least 2? input: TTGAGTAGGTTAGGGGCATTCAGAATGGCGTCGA
Resp: not fulfilled

Req: Can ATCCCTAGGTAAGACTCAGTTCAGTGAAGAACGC be said to have PBM binding z-score at or above 2?
Resp: not fulfilled

Req: Tell me whether PBM binding z-score is at least 2 here: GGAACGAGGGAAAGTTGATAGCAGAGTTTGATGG
Resp: not fulfilled

Req: Is it the case that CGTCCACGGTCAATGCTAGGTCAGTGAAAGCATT has PBM binding z-score reaching or exceeding 2?
Resp: not fulfilled

Req: Is the recorded value of PBM binding z-score equal to or greater than 2 for this sequence? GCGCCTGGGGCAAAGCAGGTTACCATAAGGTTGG
Resp: not fulfilled

Req: Does the sequence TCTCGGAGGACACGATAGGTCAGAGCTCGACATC have recorded PBM binding z-score that is 2 or more?
Resp: not fulfilled

Req: Say whether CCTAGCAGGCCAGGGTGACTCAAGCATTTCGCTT shows PBM binding z-score of 2 or more.
Resp: not fulfilled

Req: Evaluate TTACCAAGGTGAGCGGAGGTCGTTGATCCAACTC : PBM binding z-score at minimum 2?
Resp: not fulfilled

Req: Hi, just wondering whether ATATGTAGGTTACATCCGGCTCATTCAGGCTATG shows PBM binding z-score of 2 or higher.
Resp: not fulfilled

Req: Could you verify whether the entry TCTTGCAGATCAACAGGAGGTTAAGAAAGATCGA shows PBM binding z-score of no less than 2?
Resp: not fulfilled

Req: Is PBM binding z-score for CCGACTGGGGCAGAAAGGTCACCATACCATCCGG at or above 2?
Resp: fulfilled

Req: # check: PBM binding z-score of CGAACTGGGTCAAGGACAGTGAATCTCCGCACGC is greater than or equal to 2
Resp: fulfilled

Req: PBM binding z-score >= 2 for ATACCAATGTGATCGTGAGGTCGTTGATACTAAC ?
Resp: not fulfilled

Req: Assess whether reported PBM binding z-score for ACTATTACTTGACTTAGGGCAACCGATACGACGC sits at 2 or higher.
Resp: not fulfilled

Req: Does the sequence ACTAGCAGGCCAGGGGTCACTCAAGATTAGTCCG have recorded PBM binding z-score that is 2 or more?
Resp: fulfilled

Req: Determine whether this sequence has PBM binding z-score no lower than 2: CGTCCAAGGTCAAAGGTCTGTGAAGAGATGACGG
Resp: fulfilled

Req: Determine whether measured PBM binding z-score meets or exceeds 2 for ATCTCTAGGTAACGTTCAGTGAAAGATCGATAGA
Resp: not fulfilled

Req: Evaluate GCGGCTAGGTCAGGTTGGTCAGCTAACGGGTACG : PBM binding z-score at minimum 2?
Resp: not fulfilled

Req: Check the entry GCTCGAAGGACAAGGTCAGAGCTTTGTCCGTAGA : does PBM binding z-score equal or exceed 2?
Resp: fulfilled

Req: Is PBM binding z-score for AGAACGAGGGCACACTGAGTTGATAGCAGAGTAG at or above 2?
Resp: not fulfilled

Req: Say whether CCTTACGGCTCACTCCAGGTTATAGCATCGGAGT shows PBM binding z-score of 2 or more.
Resp: not fulfilled

Req: Does the reported PBM binding z-score for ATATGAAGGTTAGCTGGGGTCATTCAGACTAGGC fall at or above the 2 mark?
Resp: fulfilled

Req: Determine whether measured PBM binding z-score meets or exceeds 2 for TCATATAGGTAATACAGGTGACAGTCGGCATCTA
Resp: not fulfilled

Req: State whether the measured PBM binding z-score reaches 2, counting equality as reaching it, for TAGCCTAGGTCATGAGCCAGTATACCACGCGAAC
Resp: fulfilled

Req: Entry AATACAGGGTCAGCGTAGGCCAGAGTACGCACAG : is its PBM binding z-score no less than 2?
Resp: fulfilled

Req: Say whether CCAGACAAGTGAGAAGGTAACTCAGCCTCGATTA shows PBM binding z-score of 2 or more.
Resp: not fulfilled

Req: Assess whether reported PBM binding z-score for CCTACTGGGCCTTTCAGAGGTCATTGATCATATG sits at 2 or higher.
Resp: fulfilled

Req: Reported PBM binding z-score at or above 2? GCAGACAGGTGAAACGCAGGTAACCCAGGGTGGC
Resp: not fulfilled

Req: Textbook exercise: given the entry TTACCAAGGTGAAGGTAGTTGATCCCTCTGTAGA , state whether its PBM binding z-score is greater than or equal to 2.
Resp: not fulfilled

Req: Identify whether the reported PBM binding z-score of the following sequence is 2 or greater: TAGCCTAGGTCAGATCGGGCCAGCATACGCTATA
Resp: not fulfilled

Req: Determine whether measured PBM binding z-score meets or exceeds 2 for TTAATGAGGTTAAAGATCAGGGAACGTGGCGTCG
Resp: fulfilled

Req: Is it the case that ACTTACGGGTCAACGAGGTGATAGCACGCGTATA has PBM binding z-score reaching or exceeding 2?
Resp: fulfilled

Req: Does the reported PBM binding z-score for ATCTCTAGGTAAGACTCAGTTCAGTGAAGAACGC fall at or above the 2 mark?
Resp: not fulfilled
